- Protocol Summary: qHTS Assay for Identifying Gametocytocidal Compounds (AID 743244);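 further: on the % scale 0 is the no-effect control and ±100 the full control effect; actives lower the fluorescent signal which means gametocytes are killed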
- Measurement Setup: P. falciparum 3D7 stage III-V gametocytes, alamarBlue, 72 h; hits give low values
Records with an inconclusive call do not appear.
Measured Property: max response (%)
Your answer should be a plain number; it is taken to be in %.

Consider the worked cases shown below.
Given CCCCC/C=C\CCC(=O)N[C@H]1[C@H](Oc2c3cc4cc2Oc2ccc(cc2Cl)[C@@H](O[C@@H]2O[C@H](CO)[C@@H](O)[C@H](O)[C@H]2NC(C)=O)[C@@H]2NC(=O)[C@H](NC(=O)[C@@H]4NC(=O)[C@H]4NC(=O)[C@@H](Cc5ccc(c(Cl)c5)O3)NC(=O)[C@H](N)c3ccc(O)c(c3)Oc3cc(O)cc4c3)c3ccc(O)c(c3)-c3c(O[C@H]4O[C@H](CO)[C@@H](O)[C@H](O)[C@@H]4O)cc(O)cc3[C@@H](C(=O)O)NC2=O)O[C@H](CO)[C@@H](O)[C@@H]1O , state its recorded max response.
-6.11

Query: max response; subject: Nc1ccc(N=Nc2ccccc2)c(N)n1
-8.48

Need max response of CC1CCC(NC(=O)N(CCCl)N=O)CC1 (configuration not stated) , thanks.
3.88

# max response lookup, item CC(C)C1=CC2=CC[C@@H]3[C@](C)(CCC[C@@]3(C)C(=O)O)[C@H]2CC1
-5.77

Suppose we examine the compound O=P(O)(O)O ; what max response value has been reported?
-3.37

Next:
For the compound Cc1cccc(C)c1Nc1ncccc1C(=O)O , what max response is on record?
11.3

Can you look up the measured max response of COc1ccc(/C=C/C(=O)O)cc1 for me?
-1.23

###

- Protocol Summary: qHTS assay to identify small molecule inhibitors of chordoma cells - UCH-1 (AID 1259355); further: on the % scale 0 is the no-effect control and ±100 the full control effect; nearly all actives have a fitted effect of over 55% in size
- Measurement Setup: UCH-1 chordoma viability, CellTiter-Glo, 48 h, combination, with auranofin plus four topoisomerase inhibitors; series mostly up to 46.1 µM
Inconclusive results are not listed. Active and inactive are the calls of the source. Calls follow the shape of the dose curve; as a rule, active = well fitted cell-killing curve with a large enough effect; inconclusive = small, poorly fitted or top-dose-only effect, or effect the other way; inactive = no such curve, though single readings can be large or run the other way.
Measured Property: outcome

Looking for the measured outcome of C=O , can you help?
inactive

For CCN(CC)CCC(=O)N1c2ccccc2Sc2ccc(C(F)(F)F)cc21 , what is its reported outcome?
inactive

What value of measured outcome is listed for CO/N=C(/C(=O)N[C@@H]1C(=O)N2C(C(=O)O)=C(COC(N)=O)CS[C@H]12)c1ccco1 ?
inactive

What value of outcome has been recorded for this entry: CCCCCCCCCCCCCCCCCC[N+](C)(C)CCC[Si](OC)(OC)OC
inactive

Returns the measured outcome for the input molecule. Input: CN(Cc1ccccc1)Cc1ccccc1
inactive

---
Find the recorded outcome belonging to CC1CC(OC(=O)C(O)c2ccccc2)CC(C)(C)C1 (stereo unspecified) and report it.
inactive

###

- Target Or System: Glutathione peroxidase 1 (Homo sapiens)
- Protocol Summary: Primary qHTS Assay for Inhibitors of Recombinant Selenoprotein Glutathione Peroxidase 1 (GPX1) (AID 1845191); further: nearly all actives have a fitted effect of over 65% in size
- Measurement Setup: recombinant GPX1, GR-coupled NADPH fluorescence, 15 min; series mostly up to 48.8 µM
Results filed as inconclusive are left out. Active and inactive are the calls of the source. Calls follow the shape of the dose curve; as a rule, active = well fitted inhibition curve with a large enough effect; inconclusive = small, poorly fitted or top-dose-only effect; inactive = flat fitted curve, though single readings scatter.
Answer with one of the outcomes given here: TRUE (active), FALSE (inactive)

Would you please look over these solved cases?
Field: outcome | Entry: CCCCC[C@H](O)/C=C/[C@H]1[C@H](O)CC(=O)[C@@H]1CCCCCCC(=O)O
FALSE

Answer briefly: the call reported for CNCC(O)c1ccc(OC(=O)C(C)(C)C)c(OC(=O)C(C)(C)C)c1 (stereo unspecified) in this assay.
FALSE

Test call, this compound: CCCc1ccc(C(=O)O)cc1
FALSE

Assay result, entry CCC[C@@H]1C[C@@H](C(=O)N[C@@H]([C@H]2O[C@H](SC)[C@H](O)[C@@H](O)[C@H]2O)[C@H](C)Cl)N(C)C1 — outcome?
FALSE

Can you look up the reported call for N#Cc1ccc2c(c1)N(CCCN1CCC(O)CC1)c1ccccc1S2 for me?
FALSE

Record request — test call for C[C@H](NCCc1ccc(O)cc1)[C@H](O)c1ccc(O)cc1
FALSE

Continuing:
Call for entry Cc1c(C)c2c(c(C)c1OC(=O)CCC(=O)O)CC[C@@](C)(CCC[C@H](C)CCC[C@H](C)CCCC(C)C)O2 :
FALSE

Recorded test call requested for NC(=S)NS(=O)(=O)c1ccc(N)cc1
FALSE

What classification did CNC(=O)[C@H](Cc1c[nH]c2ccccc12)NC(=O)[C@@H](CC(=O)NO)CC(C)C end up with in this test?
FALSE

Assay result, entry NS(=O)(=O)c1cc2c(cc1Cl)NC(Cc1ccccc1)NS2(=O)=O (stereo unspecified) — outcome?
FALSE

Could you kindly confirm the outcome this assay logged for Cc1ccc(S(=O)(=O)O)cc1C ?
FALSE

Tell me the assay call for FC(F)(F)C(F)(F)C(F)(F)C(F)(F)C(F)(F)F please.
FALSE

State the result this test recorded for O=C(O)CCC(=O)c1ccc(-c2ccccc2)cc1 .
FALSE

Lab log entry: CCCCCCCCCCCCCCCC(=O)OC[C@@H](O)[C@H]1OC[C@H](O)[C@H]1O — outcome as called in the assay?
FALSE

Dear colleague, could you share the recorded outcome for CCN(CC)CCOC(=O)c1cccnc1 when you have a moment?
FALSE

Test call for this compound, please: C[C@@H]1O[C@@H]1P(=O)(O)O
TRUE

Call for entry CC(C)=CCC/C(C)=C/C=C/C(C)=C/C=C/C(C)=C/C=C/C=C(C)/C=C/C=C(C)/C=C/C=C(\C)CCC=C(C)C :
FALSE

###

Property: activity, negative = cell killing; scope: individual compounds
- Protocol Summary: Drug repurposing screens with cells derived from glioblastoma tumor samples (AID 1345199); further: on the % scale 0 is the no-effect control and ±100 the full control effect; nearly all actives have a fitted effect of over 40% in size
- Measurement Setup: GBM patient neurospheres viability, ATP luminescence, 48 h; at 45.9 µM (top of the series); tumour line B
Inconclusive results are not listed.
I only need the number, in %, no unit after it.

Sample C=C[C@]1(C)C[C@@H](OC(=O)CSCCN(CC)CC)[C@]2(C)[C@H](C)CC[C@]3(CCC(=O)[C@H]32)[C@@H](C)[C@@H]1O — what was its activity, negative = cell killing?
-23.5

Return reported activity, negative = cell killing; argument: N=C(N)c1ccc(/C=C/c2ccc(C(=N)N)cc2O)cc1
-18.3

// lookup activity, negative = cell killing for CC(=O)OCC1=C(C(=O)O)N2C(=O)[C@@H](NC(=O)Cc3ccccc3)[C@H]2SC1
-6.43

Next:
Could you tell me which activity, negative = cell killing is on file for NCCN ?
-1.66

Endpoint output: activity, negative = cell killing of CCN(CC)CCOC[C@H]1O[C@@H](O)[C@H](OCCN(CC)CC)[C@@H](O)[C@@H]1O . Value?
-9.61

Which activity, negative = cell killing is listed for CCC(Oc1ccccc1)C(=O)N[C@@H]1C(=O)N2[C@@H]1SC(C)(C)[C@@H]2C(=O)O (stereo not given in full) ?
-4.6

I am curious: what activity, negative = cell killing value has been reported for C[C@@H]1O[C@@H]1P(=O)(O)O ?
-9.49

Recorded activity, negative = cell killing for CNC(=O)C[C@@H](N)C(=O)N[C@@H](C(=O)N[C@@H]1C(=O)N2[C@@H]1SC(C)(C)[C@@H]2C(=O)O)c1ccc(O)cc1 , please?
-11.1

Look at this compound and give its reported activity, negative = cell killing. NC(=O)OC[C@@H]1[C@H](NC(=O)/C(=N\OCC(=O)O)c2csc(N)n2)C(=O)N1S(=O)(=O)O
5.57

What does the data say about its activity, negative = cell killing? Entry: CCC(C)[C@@H](N)C(=O)O (stereo not given in full)
-9.25

###

- System: CP201
- Protocol Summary: qHTS profiling for inhibitors of Plasmodium falciparum proliferation (AID 504749); further: nearly all actives have a fitted effect of over 60% in size
- Measurement Setup: P. falciparum in erythrocytes, SYBR Green DNA, 72 h; series mostly up to 28.7 µM
Records with an inconclusive call do not appear. Calls of active or inactive are those of the source. Calls follow the shape of the dose curve; as a rule, active = well fitted inhibition curve with a large enough effect; inconclusive = small, poorly fitted or top-dose-only effect; inactive = flat fitted curve, though single readings scatter.
In this exercise, the only acceptable responses are active, inactive

// below: answered compounds
Hi, do you know how O=C1CCC(c2ccccc2)(C2CCN(Cc3ccccc3)CC2)C(=O)N1 (stereo not drawn) came out in this test?
inactive

Which outcome was assigned to CC/C(=C(/CC)c1ccc(OP(=O)(O)O)cc1)c1ccc(OP(=O)(O)O)cc1 in this test?
inactive

Hi team, can someone confirm the assay call for N=C(N)n1cccn1 ?
inactive

State the result this test recorded for CC(C)(COP(=O)(O)OP(=O)(O)OC[C@H]1O[C@@H](n2cnc3c(N)ncnc32)[C@H](O)[C@@H]1OP(=O)(O)O)C(O)C(=O)NCCC(=O)NCCS (stereo partly drawn) .
inactive

Would you mind telling me which call this test gave O=C(O)[C@H]1C(=CCO)O[C@H]2CC(=O)N12 ?
inactive

Can you look up the reported call for COc1ccc2nc(NC(=O)Nc3ccccc3)sc2c1 for me?
inactive

More entries:
What was the test verdict on CCC(C)[C@@H](N)C(=O)O (stereo partly drawn) ?
inactive

I would be grateful if you could indicate the recorded call for CCC(=O)c1ccc2c(c1)N(CCCN1CCN(CCO)CC1)c1ccccc1S2 .
active

Hi team, can someone confirm the assay call for CCCCCCOC(=O)c1cccnc1 ?
inactive

Given Cc1cccc(C)c1NC(=O)NC1=CCCN1C , state the outcome it received in this test.
inactive

How did this test come out for CN(C)c1ccc(C(=C2C=CC(=[N+](C)C)C=C2)c2c(O)c(S(=O)(=O)[O-])cc3cc(S(=O)(=O)O)ccc23)cc1 ?
inactive

What call does the record list for CC(=O)Nc1ccc(OC(=O)c2ccccc2O)cc1 ?
inactive

Query: recorded result category for COc1ccc2c(c1)OC(C)(C)C(c1ccccc1)C2c1ccc(OCCN2CCCC2)cc1 (stereo not drawn) in this test
active

State the result this test recorded for Cc1c(Cl)cccc1Nc1ncccc1C(=O)O .
inactive
